TARGET_OF_ASSAY: HLA A2 (Homo sapiens, UniProt P04439, D140Y/D185E/D98H/E176V/E277Q/G131W/G231S/I119V/I121R/I166T/I218V/L300P/L318F/N151K/N90K/P208A/P217A/Q86G/Q94H/R138H/R169H/T345S)
Construct: endogenous in cells; host or cells: T2 cells
Type: cell-based
TEST_SETTINGS: HLA A2 on T2 cells; relative increase in HLA expression vs no peptide at 26° C.
EXPERIMENTAL_READOUT: MSE (MHC stabilization efficiency)

Below, 4 sequences whose answers are already recorded.
> print(dat)
                             query.sequence              result
1  LLMMSVYAL (human cytomegalovirus gH CTL epitope peptide)  ++ (++ = 100-199%)
2  LMQKFPKQV (human cytomegalovirus IE2 CTL epitope peptide)      + (+ = 51-99%)
3  ILGADPLRV (human cytomegalovirus IE1 CTL epitope peptide)  ++ (++ = 100-199%)
4  IIYTRNHEV (human cytomegalovirus IE2 CTL epitope peptide)      + (+ = 51-99%)

What MSE (MHC stabilization efficiency) value was documented for this sequence, LIFGHLPRV (human cytomegalovirus gH CTL epitope peptide) ? ++ (++ = 100-199%)
